- tested_on: rat NaP2b (SLC34A2) (Rattus norvegicus, UniProt Q9JJ09)
- Construct: host or cells: HEK293
- Sequence (Q9JJ09 whole entry): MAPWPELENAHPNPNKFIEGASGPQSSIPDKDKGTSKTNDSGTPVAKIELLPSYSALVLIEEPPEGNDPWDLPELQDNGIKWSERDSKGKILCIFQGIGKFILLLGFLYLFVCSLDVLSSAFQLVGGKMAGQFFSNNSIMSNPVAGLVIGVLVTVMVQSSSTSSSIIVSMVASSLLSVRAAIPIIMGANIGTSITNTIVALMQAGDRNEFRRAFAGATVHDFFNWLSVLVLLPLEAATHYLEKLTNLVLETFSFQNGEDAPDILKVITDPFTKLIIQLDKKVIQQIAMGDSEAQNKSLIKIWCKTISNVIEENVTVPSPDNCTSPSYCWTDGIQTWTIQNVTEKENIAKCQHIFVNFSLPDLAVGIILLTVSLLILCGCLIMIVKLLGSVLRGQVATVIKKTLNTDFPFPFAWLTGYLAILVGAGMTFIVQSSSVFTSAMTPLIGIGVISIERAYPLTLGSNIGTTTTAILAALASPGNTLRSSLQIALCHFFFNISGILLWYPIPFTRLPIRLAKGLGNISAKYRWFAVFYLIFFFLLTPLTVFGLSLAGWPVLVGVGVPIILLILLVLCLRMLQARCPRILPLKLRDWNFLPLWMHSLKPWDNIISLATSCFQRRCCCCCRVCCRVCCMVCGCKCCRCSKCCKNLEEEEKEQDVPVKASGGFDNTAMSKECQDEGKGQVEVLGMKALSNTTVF
- assay_info: Inhibition of NaP2b-mediated Pi (33P) uptake in transfected HEK293 cells, rat NaP2b
- Type: cell-based
- measurement_context: 33P Pi uptake, 0.1 mM phosphate, value given as pIC50 range
- Protocol: HEK293 cells were obtained from the American Type Culture collection and propagated per their instructions. […] The sequence of the human protein was mutated to insert a threonine after residue 37, and to introduce a N39D mutation. […] Cells were lysed by addition of 20 μL 0.1% Tween 80 followed by 100 μL scintillation fluid, and counted using a TopCount (Perkin Elmer). pIC50 (the negative log of the IC50) values of the test compounds were calculated using GraphPad Prism.
Each item that follows carries a reported IC50.

O=C(NCc1cccc(C(F)(F)F)c1)c1ccnc(-c2cc(N3CCCCC3)ccc2NC(=O)c2cccc(C(=O)N3CCC(CCO)CC3)c2)c1 [Example 4.29] :: 1 to 7.94 µM
O=C(CCOCCOCCOCCOCCCc1cccc(C(=O)Nc2ccc(N3CCCCC3)cc2-c2cc(C(=O)NCc3cccc(C(F)(F)F)c3)ccn2)c1)NC(CO)(CO)CO [Example 278] :: 1 to 7.94 µM
CCN(CC)c1ccc(NC(=O)c2cccc(CCCOCCOCCOCCOCCC(=O)O)c2)c(-c2cc(C(=O)N[C@H]3CCCc4ccccc43)ccn2)c1 [Example 302] :: < 1 µM

API: the following record is the query input.
Return IC50 measured with rat NaP2b (SLC34A2) (Rattus norvegicus, UniProt Q9JJ09) given this compound: COCCOCCOCCOCCOCCOCCOCCOCCNC(=O)CCOCCOCCOCCOCCCc1cccc(C(=O)Nc2ccc(N3CCCCC3)cc2-c2cc(C(=O)NCc3cccc(C(F)(F)F)c3)ccn2)c1 [Example 275]
1 to 7.94 µM

----------
- assay_info: Determination of compound Cmax and AUC after oral gavage (plasma LC-MS/MS)
- Assay type: in vivo, Sprague-Dawley rats
- measurement_context: Sprague-Dawley, rat, plasma, po, Structure (I) examples, Table 15, actual oral dose 3-15 mg/kg, plasma 0.5-4 h
- Procedure: Sprague-Dawley rats were orally gavaged with test article at a nominal dose of 2.5 or 10 mg/kg and blood was collected at 0.5, 1, 2 and 4 h. Blood samples were processed to plasma using K2EDTA as an anticoaglulant. […] Supernatants were analyzed by LC-MS/MS and compound concentrations were determined by interpolation from a standard curve prepared in plasma. All compounds were orally dosed at the dosage shown, and pharmacokinetic parameters determined. […]
Counter-ions that a name gives are not always drawn.
observable: Cmax

O=C(O)CCOCCOCCOCCOCCCc1cccc(C(=O)Nc2ccc(OC3CCC3)cc2-c2cc(C(=O)N[C@H]3CCCc4ccccc43)ccn2)c1 [Example 285] :: < 30 ng/mL
CN(CCN1CCOCC1)C(=O)CCOCCOCCOCCOCCSCc1cccc(C(=O)Nc2ccc(N3CCCCC3)cc2-c2cc(C(=O)NCc3cccc(C(F)(F)F)c3)ccn2)c1 [Example 150] :: < 10 ng/mL
CCN(CC)c1ccc(NC(=O)c2cccc(C(=O)N(C)CCN(C)CCOCCOCCOCCNC(=O)OC(C)(C)C)c2)c(-c2cc(C(=O)N[C@H]3CCCc4ccccc43)ccn2)c1 [Example 339] :: < 10 ng/mL

Can you look up the measured Cmax of CCN(CC)c1ccc(NC(=O)c2cccc(C(=O)N(C)CCN(CCOC)CCOCCOCCOCCOCCOCCOCCOC)c2)c(-c2cc(C(=O)NCc3cccc(C(F)(F)F)c3)ccn2)c1 [Example 335, trifluoroacetate] for me?
< 10 ng/mL

Can you look up the measured Cmax of CN(CCOCCOCCOCCC(=O)O)C(=O)Cc1cccc(SCc2cccc(C(=O)Nc3ccc(N4CCCCC4)cc3-c3cc(C(=O)NCc4cccc(C(F)(F)F)c4)ccn3)c2)c1 [Example 138] for me?
< 10 ng/mL

Can you look up the measured Cmax of CN(CCOCCOCCOCCC(=O)O)C(=O)c1cccc(C(=O)Nc2ccc(N3CCCCC3)cc2-c2cc(C(=O)NCc3cccc(C(F)(F)F)c3)ccn2)c1 [Example 248] for me?
< 10 ng/mL

Can you look up the measured Cmax of CCN(CC)c1ccc(NC(=O)c2cccc(C(=O)N(C)CCN3CCN(CCOCCOCCOCCOCCOCCOCCOC)C(=O)C3)c2)c(-c2cc(C(=O)N[C@H]3CCCc4ccccc43)ccn2)c1 [Example 327] for me?
< 10 ng/mL
